- Method notes: self-splicing fitness, log relative to wild type (ln ratio); higher = more splicing; Tetrahymena group I intron in knt gene, E. coli kanamycin selection, DiMSum; sequences stand for … in CUCUCU…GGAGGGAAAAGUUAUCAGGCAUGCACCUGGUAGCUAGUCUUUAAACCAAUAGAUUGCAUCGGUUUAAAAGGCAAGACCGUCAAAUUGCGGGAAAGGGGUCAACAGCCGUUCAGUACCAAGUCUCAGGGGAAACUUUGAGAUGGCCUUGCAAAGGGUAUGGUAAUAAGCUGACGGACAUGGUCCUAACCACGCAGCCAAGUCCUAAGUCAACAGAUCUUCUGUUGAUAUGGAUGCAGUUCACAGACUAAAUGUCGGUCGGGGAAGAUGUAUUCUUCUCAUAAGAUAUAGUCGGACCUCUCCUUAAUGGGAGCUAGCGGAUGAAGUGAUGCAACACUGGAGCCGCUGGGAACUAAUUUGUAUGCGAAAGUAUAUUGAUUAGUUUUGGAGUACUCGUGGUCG;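 also: selection with 25 µg/mL kanamycin versus none on LB agar overnight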
- Stated conditions: 37 °C
Give self-splicing fitness (ln) for every item shown.
Please give only the number in your answer, with no unit.

Task: Entry under review: `UAGAAGCAAUAUUACGUGAC` . Reported self-splicing fitness (ln)?
Output: -2.28

Task: Entry under review: `GAGUAGCAAUAUUACGUUCA` . Reported self-splicing fitness (ln)?
Output: -0.31

Task: Entry under review: `AUAGAGCAAUAUUACGCGCG` . Reported self-splicing fitness (ln)?
Output: -0.725

Task: Entry under review: `UGACAGCAAUAUUACGGCAA` . Reported self-splicing fitness (ln)?
Output: -0.13

Task: Entry under review: `CUGAAGCAAUAUUACGUUGC` . Reported self-splicing fitness (ln)?
Output: -0.264

Task: Entry under review: `AAGUAGCAAUAUUACGCAAA` . Reported self-splicing fitness (ln)?
Output: -1.34

Task: Entry under review: `UCGCAGCAAUAUUACGAAGC` . Reported self-splicing fitness (ln)?
Output: -2.25

Task: Entry under review: `UCCCAGCAAUAUUACGGAGC` . Reported self-splicing fitness (ln)?
Output: -1.44

Task: Entry under review: `CCGCAGCAAUAUUACGUUCU` . Reported self-splicing fitness (ln)?
Output: -3.16

Task: Entry under review: `UACGAGCAAUAUUACGAAUA` . Reported self-splicing fitness (ln)?
Output: -2.87

Task: Entry under review: `CGCUAGCAAUAUUACGUACU` . Reported self-splicing fitness (ln)?
Output: -0.0116

Task: Entry under review: `GUGGAGCAAUAUUACGAGUC` . Reported self-splicing fitness (ln)?
Output: -2.24

Task: Entry under review: `CAUCAGCAAUAUUACGAAAG` . Reported self-splicing fitness (ln)?
Output: -0.249

Task: Entry under review: `CACUAGCAAUAUUACGUUAG` . Reported self-splicing fitness (ln)?
Output: -2.92

Task: Entry under review: `CGAAAGCAAUAUUACGUGAG` . Reported self-splicing fitness (ln)?
Output: -0.102

Task: Entry under review: `UGACAGCAAUAUUACGCGAC` . Reported self-splicing fitness (ln)?
Output: -1.86

Task: Entry under review: `CCUAAGCAAUAUUACGUAUG` . Reported self-splicing fitness (ln)?
Output: -0.95

Task: Entry under review: `CAGAAGCAAUAUUACGCUCU` . Reported self-splicing fitness (ln)?
Output: -2.41

Task: Entry under review: `UUGUAGCAAUAUUACGACAG` . Reported self-splicing fitness (ln)?
Output: -0.137

Task: Entry under review: `GCAUAGCAAUAUUACGGCCU` . Reported self-splicing fitness (ln)?
Output: -0.683

Task: Entry under review: `GGAAAGCAAUAUUACGGUGC` . Reported self-splicing fitness (ln)?
Output: -1.62

Task: Entry under review: `GAAUAGCAAUAUUACGCAAA` . Reported self-splicing fitness (ln)?
Output: -1.75

Task: Entry under review: `UCACAGCAAUAUUACGGUUU` . Reported self-splicing fitness (ln)?
Output: -1.15

Task: Entry under review: `UAGAAGCAAUAUUACGUCUG` . Reported self-splicing fitness (ln)?
Output: -0.959

Task: Entry under review: `UAAUAGCAAUAUUACGUUGA` . Reported self-splicing fitness (ln)?
Output: -2.54

Task: Entry under review: `CGAUAGCAAUAUUACGUGGG` . Reported self-splicing fitness (ln)?
Output: -0.763

Task: Entry under review: `UUGCAGCAAUAUUACGACCC` . Reported self-splicing fitness (ln)?
Output: -0.535

Task: Entry under review: `UGGUAGCAAUAUUACGUGUU` . Reported self-splicing fitness (ln)?
Output: -1.82

Task: Entry under review: `GGUGAGCAAUAUUACGCUUC` . Reported self-splicing fitness (ln)?
Output: -2.51

Task: Entry under review: `AACAAGCAAUAUUACGAGGG` . Reported self-splicing fitness (ln)?
Output: -1.35

Task: Entry under review: `GUUCAGCAAUAUUACGCCGU` . Reported self-splicing fitness (ln)?
Output: -0.339

Task: Entry under review: `AGCAAGCAAUAUUACGUGGA` . Reported self-splicing fitness (ln)?
Output: -1.85

Task: Entry under review: `UGUCAGCAAUAUUACGAGAG` . Reported self-splicing fitness (ln)?
Output: -2.58

Task: Entry under review: `UUAGAGCAAUAUUACGAGGG` . Reported self-splicing fitness (ln)?
Output: -2.64

Task: Entry under review: `CCACAGCAAUAUUACGUCGC` . Reported self-splicing fitness (ln)?
Output: -3.36

Task: Entry under review: `CGUUAGCAAUAUUACGGAAG` . Reported self-splicing fitness (ln)?
Output: -0.829

Task: Entry under review: `UUCUAGCAAUAUUACGUACC` . Reported self-splicing fitness (ln)?
Output: -0.136

Task: Entry under review: `GGGCAGCAAUAUUACGGUAA` . Reported self-splicing fitness (ln)?
Output: -0.663

Task: Entry under review: `GAGUAGCAAUAUUACGCCAA` . Reported self-splicing fitness (ln)?
Output: -1.66

Task: Entry under review: `CUGUAGCAAUAUUACGUCGC` . Reported self-splicing fitness (ln)?
Output: -3.19

Task: Entry under review: `CAAUAGCAAUAUUACGCUAG` . Reported self-splicing fitness (ln)?
Output: -1.86

Task: Entry under review: `CACUAGCAAUAUUACGAUUG` . Reported self-splicing fitness (ln)?
Output: -0.457

Task: Entry under review: `GUUUAGCAAUAUUACGCGCC` . Reported self-splicing fitness (ln)?
Output: -2.51

Task: Entry under review: `CCGAAGCAAUAUUACGAGAA` . Reported self-splicing fitness (ln)?
Output: -1.17

Task: Entry under review: `CCGUAGCAAUAUUACGUCGC` . Reported self-splicing fitness (ln)?
Output: -1.77

Task: Entry under review: `UUAAAGCAAUAUUACGGCAG` . Reported self-splicing fitness (ln)?
Output: 0.214

Task: Entry under review: `GGCGAGCAAUAUUACGCAGA` . Reported self-splicing fitness (ln)?
Output: -2.31

Task: Entry under review: `CUGAAGCAAUAUUACGAUCA` . Reported self-splicing fitness (ln)?
Output: -1.53

Task: Entry under review: `CCUUAGCAAUAUUACGCGUA` . Reported self-splicing fitness (ln)?
Output: -2.54

Task: Entry under review: `GUAGAGCAAUAUUACGAUUG` . Reported self-splicing fitness (ln)?
Output: -2.4

Task: Entry under review: `CACCAGCAAUAUUACGCUAC` . Reported self-splicing fitness (ln)?
Output: -2.1

Task: Entry under review: `UUACAGCAAUAUUACGAGCC` . Reported self-splicing fitness (ln)?
Output: -1.13

Task: Entry under review: `AAUGAGCAAUAUUACGCGGC` . Reported self-splicing fitness (ln)?
Output: -2.11

Task: Entry under review: `CAAAAGCAAUAUUACGAGCU` . Reported self-splicing fitness (ln)?
Output: -1.96

Task: Entry under review: `CAUCAGCAAUAUUACGUUGG` . Reported self-splicing fitness (ln)?
Output: -0.639

Task: Entry under review: `CCAGAGCAAUAUUACGGGGC` . Reported self-splicing fitness (ln)?
Output: -2.8

Task: Entry under review: `CCUCAGCAAUAUUACGGUCU` . Reported self-splicing fitness (ln)?
Output: -2.56

Task: Entry under review: `UCUUAGCAAUAUUACGGACA` . Reported self-splicing fitness (ln)?
Output: -1.19

Task: Entry under review: `CGAUAGCAAUAUUACGCAAC` . Reported self-splicing fitness (ln)?
Output: -2.49

Task: Entry under review: `UUUAAGCAAUAUUACGGCUC` . Reported self-splicing fitness (ln)?
Output: -0.633

Task: Entry under review: `UUGGAGCAAUAUUACGACAU` . Reported self-splicing fitness (ln)?
Output: -1.04

Task: Entry under review: `CCGGAGCAAUAUUACGAUGU` . Reported self-splicing fitness (ln)?
Output: -0.726

Task: Entry under review: `GGAGAGCAAUAUUACGAGAU` . Reported self-splicing fitness (ln)?
Output: -2.14

Task: Entry under review: `GAAAAGCAAUAUUACGAACC` . Reported self-splicing fitness (ln)?
Output: -0.705

Task: Entry under review: `AUCAAGCAAUAUUACGCAUC` . Reported self-splicing fitness (ln)?
Output: -1.64

Task: Entry under review: `ACAUAGCAAUAUUACGAUCG` . Reported self-splicing fitness (ln)?
Output: -0.312

Task: Entry under review: `GUCAAGCAAUAUUACGUUUA` . Reported self-splicing fitness (ln)?
Output: -0.845
